# β sheets of AChE in presence of the molecule per record follows
molecular target: AChE (Electrophorus electricus, UniProt O42275); construct: purchased Sigma (St. Louis, MO, USA); experiment: Far-UV circular dichroism of AChE with small molecules (secondary structure composition); conditions: single molecule; AChE alone 52.3±0.6
Structures can show the parent of a compound that is named as a salt.
Field: numeric (%). Do not append units.

Consider the following illustrative entries.
- compound: "C[C@@H]1O[C@@H](OC[C@H]2O[C@@H](Oc3c(-c4ccc(O)c(O)c4)oc4cc(O)cc(O)c4c3=O)[C@H](O)[C@@H](O)[C@@H]2O)[C@H](O)[C@H](O)[C@H]1O [Rutin hydrate, rutin hydrate]"
  reported: 50.5
- compound: "C[N+](C)(C)CCOC(N)=O [Carbachol, carbachol, reference compound]"
  reported: 51.0
- compound: "CC(/C=C/C=C(\\C)C(=O)O[C@@H]1O[C@H](CO[C@@H]2O[C@H](CO)[C@@H](O)[C@H](O)[C@H]2O)[C@@H](O)[C@H](O)[C@H]1O)=C\\C=C\\C=C(C)\\C=C\\C=C(/C)C(=O)O[C@@H]1O[C@H](CO[C@@H]2O[C@H](CO)[C@@H](O)[C@H](O)[C@H]2O)[C@@H](O)[C@H](O)[C@H]1O [Crocin, crocin]"
  reported: 50.5
- compound: "O.Oc1cc(O)c2c(c1)O[C@H](c1ccc(O)c(O)c1)[C@@H](O)C2 [Catechin hydrate, catechin hydrate]"
  reported: 49
- compound: "Oc1cccc(O)c1O [Pyrogallol, pyrogallol]"
  reported: 50.8

Inquiry: Specify reported β sheets of AChE in presence of the molecule for the compound shown: O[C@H]1[C@H]2c3cc4c(cc3CN3CCC(=C[C@@H]1O)[C@H]23)OCO4 [Lycorine hydrochloride, lycorine hydrochloride]
Reply text: 51.2

Inquiry: Specify reported β sheets of AChE in presence of the molecule for the compound shown: CC(=O)SCC[N+](C)(C)C.[I-] [ATCI, acetylthiocholine iodide, reference compound]
Reply text: 51.3

Inquiry: Specify reported β sheets of AChE in presence of the molecule for the compound shown: O=c1c(O)c(-c2ccc(O)c(O)c2)oc2cc(O)cc(O)c12 [Quercetin, quercetin]
Reply text: 53.2

----------
Biological target: AChE (Electrophorus electricus)
Construct: purchased Sigma (St. Louis, MO, USA)
Experiment: Far-UV circular dichroism of AChE with small molecules (secondary structure composition)
Conditions: single molecule; AChE alone 44.2±0.46
Method: Protein solutions 0.5 milligram per milliliter (mgml^-1) was prepared in 10 mM PBS at pH 7.7. […] The CD spectrum of AChE enzyme individually and with different small molecules, also in combination was recorded. […] Results were expressed as molar ellipticity (°cm^2 dmol^-1) based on a mean amino acid residue weight (MRW) 110 Da for AChE. […]
Structures can show the parent of a compound that is named as a salt.
readout kind: Random of AChE in presence of the molecule (%)
Field: numeric (%). Do not append units.

Inquiry: Specify reported Random of AChE in presence of the molecule for the molecule shown: `Oc1cccc(O)c1O`
Reply text: 49.2

Inquiry: Specify reported Random of AChE in presence of the molecule for the molecule shown: `CC(/C=C/C=C(\C)C(=O)O[C@@H]1O[C@H](CO[C@@H]2O[C@H](CO)[C@@H](O)[C@H](O)[C@H]2O)[C@@H](O)[C@H](O)[C@H]1O)=C\C=C\C=C(C)\C=C\C=C(/C)C(=O)O[C@@H]1O[C@H](CO[C@@H]2O[C@H](CO)[C@@H](O)[C@H](O)[C@H]2O)[C@@H](O)[C@H](O)[C@H]1O`
Reply text: 43.8

Inquiry: Specify reported Random of AChE in presence of the molecule for the molecule shown: C[N+](C)(C)CCOC(N)=O [Carbachol, carbachol, reference compound]
Reply text: 42.4

Inquiry: Specify reported Random of AChE in presence of the molecule for the molecule shown: CC(=O)SCC[N+](C)(C)C.[I-] [ATCI, acetylthiocholine iodide, reference compound]
Reply text: 42.8

Inquiry: Specify reported Random of AChE in presence of the molecule for the molecule shown: `O=c1c(O)c(-c2ccc(O)c(O)c2)oc2cc(O)cc(O)c12`
Reply text: 42.8

Inquiry: Specify reported Random of AChE in presence of the molecule for the molecule shown: C[C@@H]1O[C@@H](OC[C@H]2O[C@@H](Oc3c(-c4ccc(O)c(O)c4)oc4cc(O)cc(O)c4c3=O)[C@H](O)[C@@H](O)[C@@H]2O)[C@H](O)[C@H](O)[C@H]1O [Rutin hydrate, rutin hydrate]
Reply text: 40.7

Inquiry: Specify reported Random of AChE in presence of the molecule for the molecule shown: O.Oc1cc(O)c2c(c1)O[C@H](c1ccc(O)c(O)c1)[C@@H](O)C2 [Catechin hydrate, catechin hydrate]
Reply text: 41

Inquiry: Specify reported Random of AChE in presence of the molecule for the molecule shown: O[C@H]1[C@H]2c3cc4c(cc3CN3CCC(=C[C@@H]1O)[C@H]23)OCO4 [Lycorine hydrochloride, lycorine hydrochloride]
Reply text: 41.6

----------
biological target: immobilized AChE (Electrophorus electricus, UniProt O42275); construct: purchased Sigma (St. Louis, MO, USA); experiment: biochemical; assay type: binding; settings: two-state model, 25°C
Structures can show the parent of a compound that is named as a salt.
readout kind: Kd1 (s⁻¹)
Field: numeric (s⁻¹). Do not append units.

Consider the following illustrative entries.
- molecule: "C[C@@H]1O[C@@H](OC[C@H]2O[C@@H](Oc3c(-c4ccc(O)c(O)c4)oc4cc(O)cc(O)c4c3=O)[C@H](O)[C@@H](O)[C@@H]2O)[C@H](O)[C@H](O)[C@H]1O [Rutin hydrate, rutin hydrate]"
  tested system: "immobilized AChE (Electrophorus electricus, UniProt O42275)"
  unit info: "s⁻¹"
  reported: 0.04254
- molecule: "CC(=O)SCC[N+](C)(C)C.[I-] [ATCI, acetylthiocholine iodide, reference compound]"
  tested system: "immobilized AChE (Electrophorus electricus, UniProt O42275)"
  unit info: "s⁻¹"
  reported: 0.4167
- molecule: "O=c1c(O)c(-c2ccc(O)c(O)c2)oc2cc(O)cc(O)c12"
  tested system: "immobilized AChE (Electrophorus electricus, UniProt O42275)"
  unit info: "s⁻¹"
  reported: 0.05923
- molecule: "C[N+](C)(C)CCOC(N)=O [Carbachol, carbachol, reference compound]"
  tested system: "immobilized AChE (Electrophorus electricus, UniProt O42275)"
  unit info: "s⁻¹"
  reported: 0.05155
- molecule: "Oc1cccc(O)c1O"
  tested system: "immobilized AChE (Electrophorus electricus, UniProt O42275)"
  unit info: "s⁻¹"
  reported: 0.05082
- molecule: "CC(/C=C/C=C(\\C)C(=O)O[C@@H]1O[C@H](CO[C@@H]2O[C@H](CO)[C@@H](O)[C@H](O)[C@H]2O)[C@@H](O)[C@H](O)[C@H]1O)=C\\C=C\\C=C(C)\\C=C\\C=C(/C)C(=O)O[C@@H]1O[C@H](CO[C@@H]2O[C@H](CO)[C@@H](O)[C@H](O)[C@H]2O)[C@@H](O)[C@H](O)[C@H]1O"
  tested system: "immobilized AChE (Electrophorus electricus, UniProt O42275)"
  unit info: "s⁻¹"
  reported: 472

Inquiry: Specify reported Kd1 for the molecule shown: O[C@H]1[C@H]2c3cc4c(cc3CN3CCC(=C[C@@H]1O)[C@H]23)OCO4 [Lycorine hydrochloride, lycorine hydrochloride]
Reply text: 0.3564

Inquiry: Specify reported Kd1 for the molecule shown: O.Oc1cc(O)c2c(c1)O[C@H](c1ccc(O)c(O)c1)[C@@H](O)C2 [Catechin hydrate, catechin hydrate]
Reply text: 0.06336

----------
target: immobilized AChE (Electrophorus electricus, UniProt O42275); construct: purchased Sigma (St. Louis, MO, USA); assay: biochemical; assay type: binding; conditions: KD Affinity, affinity fit, 25°C
readout kind: Kd (mM)
Field: numeric (mM). Do not append units.

Inquiry: Specify reported Kd for the compound shown: Cn1c(=O)c2c(ncn2C)n(C)c1=O [Caffeine, caffeine, reference compound]
Reply text: 7.7

----------
target: immobilized AChE (Electrophorus electricus, UniProt O42275); construct: purchased Sigma (St. Louis, MO, USA); assay: biochemical; type: binding; conditions: KD Kinetics, two-state model, 25°C
readout kind: pKd
Remember the convention: pKd equals -log10 of concentration in molar.

Inquiry: Specify reported pKd for the compound shown: Cn1c(=O)c2c(ncn2C)n(C)c1=O [Caffeine, caffeine, reference compound]
Reply text: 4.76

----------
Molecular target: acetylcholinesterase from Electrophorus electricus (Electric eel) (Electrophorus electricus, UniProt O42275)
Construct: purchased Sigma (St. Louis, MO, USA)
Sequence (O42275 24-633): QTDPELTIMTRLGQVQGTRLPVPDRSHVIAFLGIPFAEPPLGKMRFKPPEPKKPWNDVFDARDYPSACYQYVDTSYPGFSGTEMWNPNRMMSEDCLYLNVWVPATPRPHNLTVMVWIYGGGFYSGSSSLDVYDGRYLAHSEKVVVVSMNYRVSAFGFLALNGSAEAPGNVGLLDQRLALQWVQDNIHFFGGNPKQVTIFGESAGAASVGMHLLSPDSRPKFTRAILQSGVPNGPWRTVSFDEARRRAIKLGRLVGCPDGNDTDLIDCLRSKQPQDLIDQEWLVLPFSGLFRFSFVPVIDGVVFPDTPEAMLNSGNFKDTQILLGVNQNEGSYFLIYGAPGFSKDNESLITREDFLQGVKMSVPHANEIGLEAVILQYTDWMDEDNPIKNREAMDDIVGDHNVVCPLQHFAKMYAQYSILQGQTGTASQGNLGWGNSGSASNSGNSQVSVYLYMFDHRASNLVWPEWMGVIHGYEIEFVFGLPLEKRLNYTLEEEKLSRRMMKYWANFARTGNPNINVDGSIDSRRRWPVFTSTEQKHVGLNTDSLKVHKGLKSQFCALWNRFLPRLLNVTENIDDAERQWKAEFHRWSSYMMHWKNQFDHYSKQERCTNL
Assay: Inhibition assay for acetylcholinesterase activity (modified Ellman, ATCI/DTNB, 412 nm)
Assay type: biochemical
Settings: […] ATCI, PBS 200 mM pH 7.7, 37°C, mean ± SEM (n = 3); read-out: IC50
Description: The assay was performed with some modifications of Ellman et al (1961). […] The hydrolysis was monitored by the formation of yellow color (5-thio-2-nitrobenzoate anion) and the absorbance was measured at 412 nm by using spectrophotometer (UV-1800, Shimadzu, Japan). The inhibitory activity assay was carried out with slight modifications. […] The inhibitory percentage of AChE was calculated as follows: %inhibition = 100[A − B] − [C − D]/[A − B] […]
readout kind: pIC50
Remember the convention: pIC50 equals -log10 of concentration in molar.

Inquiry: Specify reported pIC50 for the molecule shown: O.Oc1cc(O)c2c(c1)O[C@H](c1ccc(O)c(O)c1)[C@@H](O)C2 [Catechin hydrate, catechin hydrate]
Reply text: 4.05

Attribution: paper PMC6544338
